System: RAW264.7
Assay: Inhibition of LPS-induced NO production in mouse RAW264.7 cells after 24 hrs by Griess method
Type: functional, cell-based
Details: RAW264.7, 24 h
Threshold-based label: IC50 under 20 µM gives Yes, IC50 not under 20 µM gives No.

[in] IC50 under 20 µM? Item: CC(C)=CC(=O)O[C@H]1c2c(ccc3ccc(=O)oc23)OC(C)(C)[C@H]1OC(=O)C=C(C)C
[out] Yes

[in] IC50 under 20 µM? Item: CC(C)C(=O)O[C@H]1c2c(ccc3ccc(=O)oc23)OC(C)(C)[C@H]1OC(=O)C(C)C
[out] No

[in] IC50 under 20 µM? Item: CC(C)=CC(=O)O[C@H]1c2c(ccc3ccc(=O)oc23)OC(C)(C)[C@H]1OC(=O)CC(C)C
[out] Yes

[in] IC50 under 20 µM? Item: CC(=O)O[C@H]1c2c(ccc3ccc(=O)oc23)OC(C)(C)[C@H]1OC(=O)C=C(C)C
[out] No

[in] IC50 under 20 µM? Item: N=C(N)NN [PIMAGEDINE]
[out] Yes

[in] IC50 under 20 µM? Item: CC(C)CC(=O)O[C@H]1c2c(ccc3ccc(=O)oc23)OC(C)(C)[C@H]1OC(=O)CC(C)C
[out] Yes

[in] IC50 under 20 µM? Item: CC(=O)O[C@H]1c2c(ccc3ccc(=O)oc23)OC(C)(C)[C@H]1OC(=O)CC(C)C
[out] Yes
